- EXPERIMENT SUMMARY: Temperature dependence of pH of buffer solutions, ratiometric UV-vis (A418/A623) with indicator 1
- Assay type: physicochemical
- TEST CONDITIONS: FIG. 4; 50 mM buffer solutions containing 75% glycerol
PARAMETER: direction of pH change as the solution is equilibrated at lower temperatures

[[record]]
molecule = "CC(=O)O [acetate]"
result = "increases"

[[record]]
molecule = "O=S(=O)(O)CCCN1CCOCC1 [MOPS, 3-N-morpholino propansulfonic acid]"
result = "increases"

[[record]]
molecule = "NC(CO)(CO)CO [Trizma]"
result = "increases"


====

- EXPERIMENT SUMMARY: Temperature dependence of pH of buffer solutions, ratiometric UV-vis (A418/A623) with indicator 1
- Format: physicochemical
- TEST CONDITIONS: Table 3; single buffers
Kindly supply the reported pH at 298 K values for the records listed here.

Requested field: pH at 298 K. Item: `O=S(=O)(O)CCN1CCOCC1`
6.0

Check `NC(CO)(CO)CO` too.
7.0

Check CC(=O)[O-].[Na+] [Na-Acetate, sodium acetate] too.
5.0

Check `O=S(=O)(O)CCCN1CCOCC1` too.
6.1

Check `OCC(CO)(CO)NCCCNC(CO)(CO)CO` too.
6.1
